TARGET_OR_SYSTEM: MAT2A homodimer (Homo sapiens)
Construct: inferred from the Ni sepharose purification and imidazole elution; made in house; host or cells: SF9 insect cells, recombinant baculovirus (Bac to Bac, pFASTBAC1)
Sequence (P31153 whole entry): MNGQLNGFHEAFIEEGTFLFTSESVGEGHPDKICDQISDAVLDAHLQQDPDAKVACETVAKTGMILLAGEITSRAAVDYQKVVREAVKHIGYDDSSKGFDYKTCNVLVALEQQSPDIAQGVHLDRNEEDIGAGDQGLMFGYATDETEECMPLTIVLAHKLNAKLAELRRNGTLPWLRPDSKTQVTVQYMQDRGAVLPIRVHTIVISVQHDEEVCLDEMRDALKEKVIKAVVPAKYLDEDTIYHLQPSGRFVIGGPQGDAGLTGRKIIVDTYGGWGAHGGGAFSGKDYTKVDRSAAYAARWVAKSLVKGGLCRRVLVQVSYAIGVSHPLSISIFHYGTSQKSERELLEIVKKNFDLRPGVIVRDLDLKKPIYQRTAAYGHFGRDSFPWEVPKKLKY
PROCEDURE_TEXT: MAT2A biochemical assay (liberated phosphate, PiColorLock Gold)
CONDITION_NOTES: Table 5a; MAT2A biochemical assay; read-out: Enzyme Inhibition
METRIC: IC50

- COMPOUND: "[2H]C([2H])([2H])Oc1ccc(N2C(=O)N(c3ccc4nn(C)cc4c3)Cc3ncc(OCC(F)F)nc32)cc1 [Example 181]"
  TARGET_OR_SYSTEM: "MAT2A homodimer (Homo sapiens)"
  IC50: "< 100 nM"
- COMPOUND: "CCOc1cnc2c(c1)N(c1ccc(OC(F)F)cc1)C(=O)N(c1ccc(OC)cc1)C2 [Example 289]"
  TARGET_OR_SYSTEM: "MAT2A homodimer (Homo sapiens)"
  IC50: "100 to 1000 nM"

Give IC50 for each of the items listed below.
1. CCOc1ccc2c(n1)N(c1cnc(C(F)(F)F)nc1)C(=O)N(c1ccc3nn(C)cc3c1)C2 [Example 148]
2. COc1ccc(N2C(=O)N(c3ccc4nn(C)cc4c3)Cc3ccc(NC4CCC4)nc32)cc1 [Example 162]
3. [2H]C([2H])([2H])Oc1ccc(N2C(=O)N(c3ccc4nn(C)cc4c3)Cc3c(C)cc(OCC(F)F)nc32)cc1 [Example 185]
4. COc1ccc(N2C(=O)N(c3ccc4nn(C)cc4c3)Cc3cnc(NC4CCCCC4)nc32)cc1 [Example 248]
5. CCOc1cnc2c(n1)N(c1ccc(Cl)cc1)C(=O)N(c1ccc3nn(C)cc3c1)C2 [Example 413]

1. 100 to 1000 nM
2. < 100 nM
3. < 100 nM
4. 1000 to 10000 nM
5. < 100 nM

Give IC50 for each of the items listed below.
1. Cn1cnc2ccc(N3Cc4ccc(NCC(F)(F)F)nc4N(c4ccc(OC(F)F)cc4)C3=O)cc21 [Example 271]
2. CCOc1cnc2c(c1)N(c1ccc(Cl)cc1)C(=O)N(c1ccc3nn(C)cc3c1)C2 [Example 291]
3. Cn1cc2cc(N3Cc4ccc(OCC(F)F)nc4N(c4ccc5ncccc5c4)C3=O)ccc2n1 [Example 175]
4. CCC(=O)c1ccc(N2C(=O)N(c3ccc(OC)cc3)Cc3cnc(NCC(F)(F)F)nc32)cc1 [Example 199]
5. COc1ccc(N2Cc3cnc(NCC(F)(F)F)nc3N(c3ccc(-c4nc[nH]n4)cc3)C2=O)cc1 [Example 193]

1. < 100 nM
2. 100 to 1000 nM
3. < 100 nM
4. 100 to 1000 nM
5. < 100 nM

Values compiled from patent US20220098203A1.
